study-target: FYN (human) (UniProt P06241)
Sequence (P06241 whole entry, looked up): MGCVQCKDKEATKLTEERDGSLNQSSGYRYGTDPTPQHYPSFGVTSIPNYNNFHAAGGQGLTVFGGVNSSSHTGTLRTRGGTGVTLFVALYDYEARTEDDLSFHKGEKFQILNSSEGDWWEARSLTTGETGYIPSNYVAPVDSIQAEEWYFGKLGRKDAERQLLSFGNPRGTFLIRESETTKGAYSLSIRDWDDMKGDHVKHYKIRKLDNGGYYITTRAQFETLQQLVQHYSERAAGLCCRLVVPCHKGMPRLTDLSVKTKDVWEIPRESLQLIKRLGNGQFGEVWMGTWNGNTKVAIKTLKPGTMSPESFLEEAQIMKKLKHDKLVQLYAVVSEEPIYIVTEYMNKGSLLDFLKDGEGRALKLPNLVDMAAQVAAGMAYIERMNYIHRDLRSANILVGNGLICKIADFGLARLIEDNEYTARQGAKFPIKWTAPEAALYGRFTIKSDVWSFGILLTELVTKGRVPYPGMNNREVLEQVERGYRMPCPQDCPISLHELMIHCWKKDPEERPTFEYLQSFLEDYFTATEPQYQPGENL
protocol-description: Caliper, Mobility shift assay off-chip
test-parameters: compound 0.1 µM
inhibition by entry:
Report only the number, with the unit % understood.

The following compounds have reported results that may help.
# compound, study-target, measure-name, readout-number
measured = [
    ("O=c1c2cc(CS(=O)(=O)NCc3ccccn3)ccc2ccc2ncc(C3CCNCC3)cc12", "FYN (human) (UniProt P06241)", "inhibition", -7.3),
    ("CN(c1ccc2ccc3ncc(-c4cnn(C)c4)cc3c(=O)c2c1)S(=O)(=O)NCc1ccccn1", "FYN (human) (UniProt P06241)", "inhibition", -0.3),
]

Qu. Name the recorded inhibition for "O=C(CCc1ccc2ccc3ncc(C4CCNCC4)cc3c(=O)c2c1)NCc1ccccn1" .
Ans. -4.2

Qu. Which value of inhibition has been reported for "Cn1cc(-c2cnc3ccc4ccc(CS(=O)(=O)CCc5ccccn5)cc4c(=O)c3c2)cn1" in the records?
Ans. -11.5

Qu. What does the data say about its inhibition? Entry: "Cn1cc(-c2cnc3ccc4ccc(CS(N)(=O)=O)cc4c(=O)c3c2)cn1"
Ans. -3.7

Qu. Which inhibition is reported for this compound? "Cn1cc(-c2cnc3ccc4ccc(CS(=O)(=O)NC5CCCCC5)cc4c(=O)c3c2)cn1"
Ans. -3

Qu. Please look up its inhibition: Cn1cc(-c2cnc3ccc4ccc(CS(=O)(=O)NCC5CCCCN5)cc4c(=O)c3c2)cn1 (configuration not stated)
Ans. 4.37
